# % inhibition male (individual replicates) R4 per record follows
Tested on: P. falciparum male gametocytes
assay-protocol: P. falciparum Dual Gamete Formation Assay (PfDGFA), male readout (exflagellation)
Format: cell-based, Plasmodium falciparum NF54
details: 2µM, 24h preincubation with gametocytes; replicate R4
value-kind: % inhibition male (individual replicates) R4 (%)

molecule: COc1ccc2ccc(OC)c(CNCCCCCCNCc3c(OC)ccc4ccc(OC)cc34)c2c1.CS(=O)(=O)O
reported-result: 102.2

molecule: S=C(NN=Cc1ccccn1)NC1CC2C=CC1C2 (centres unmarked)
reported-result: 102.9

molecule: CCn1c(-c2nonc2N)nc2c(-c3ccccc3)ncc(OCCCCNCCc3ncc[nH]3)c21.O=C(O)C(F)(F)F
reported-result: 98.9

molecule: CCCCCCC(N)c1ccc(OCCCOc2ccc(C(N)CCCCCC)cc2)cc1.Cl (centres unmarked)
reported-result: 99.6

molecule: CC(=NNC(=S)Nc1ccccc1Cl)c1ccccn1
reported-result: 103.6

molecule: CS(=O)(=O)O.FC(F)(F)COc1ccc(CCNCCCCNCCc2ccc(OCC(F)(F)F)c3ccccc23)c2ccccc12
reported-result: 97.4

molecule: CS(=O)(=O)O.FC(F)(F)COc1ccc(CNCCCCCCNCc2ccc(OCC(F)(F)F)c3ccccc23)c2ccccc12
reported-result: 101.6

molecule: Clc1ccc(/N=C(/NCCCCCCCN/C(=N\c2ccc(Cl)cc2)Nc2ccc(Cl)cc2)Nc2ccc(Cl)cc2)cc1
reported-result: 94.9
